src = patent US20060004002A1

# targetUnderTest: Recombinant human Src (Homo sapiens, UniProt P12931)
# Construct: made in house; host or cells: baculovirus-insect cell system
# Sequence (P12931 whole entry): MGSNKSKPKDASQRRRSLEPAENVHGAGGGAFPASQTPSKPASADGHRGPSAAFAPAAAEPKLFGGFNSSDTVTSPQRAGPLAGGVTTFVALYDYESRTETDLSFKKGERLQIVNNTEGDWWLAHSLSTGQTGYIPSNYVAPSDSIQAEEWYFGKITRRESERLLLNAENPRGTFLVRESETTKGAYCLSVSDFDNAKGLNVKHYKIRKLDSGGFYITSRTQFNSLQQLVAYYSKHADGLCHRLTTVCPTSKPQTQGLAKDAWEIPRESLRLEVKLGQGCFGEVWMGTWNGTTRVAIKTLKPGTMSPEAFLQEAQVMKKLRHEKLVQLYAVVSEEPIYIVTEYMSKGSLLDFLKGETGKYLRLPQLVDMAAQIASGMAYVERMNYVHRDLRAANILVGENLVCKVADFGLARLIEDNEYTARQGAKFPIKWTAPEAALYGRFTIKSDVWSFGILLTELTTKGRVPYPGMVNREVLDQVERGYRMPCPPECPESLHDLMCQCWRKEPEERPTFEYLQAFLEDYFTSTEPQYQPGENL
# testName: Src tyrosine kinase activity assay with poly E4Y and 32P-ATP
# Format: biochemical
# setupConditions: poly E4Y, 32P-ATP; NI = no inhibition; read-out: IC50 Value Src
pIC50: −log10 of the molar value.
Hi, to clarify the labels: 1 covers pIC50 from 8 upward, 0 covers anything below 8.

>>> category("Cc1c(-c2ccc(C(N)=NO)cc2)sc2c(NN=Cc3cccnc3)ncnc12")
0
>>> category("CCOc1ccccc1-c1sc2c(NN=Cc3cccc(O)c3)ncnc2c1O")
1
>>> category("Cc1c(-c2cccc(C#N)c2)sc2c(NN=Cc3cccnc3)ncnc12")
0
>>> category("CCOc1ccccc1-c1sc2c(NN=Cc3cccc(O)c3)ncnc2c1C#N")
1
>>> category("CCOc1ccccc1-c1sc2c(NN=Cc3ccc(O)cc3)ncnc2c1C#N")
1
>>> category("CCOc1ccccc1-c1sc2c(NN=Cc3ccc(C(=O)OC)cc3)ncnc2c1C#N")
0
>>> category("CCOc1ccccc1-c1sc2c(NN=Cc3ccc(O)c(OC)c3)ncnc2c1O")
1
>>> category("COc1ccc(C=NNc2ncnc3c(C)c(-c4ccccc4CN)sc23)cc1O")
0
>>> category("CCNc1ccc(-c2sc3c(NN=Cc4ccc(OC)c(O)c4)ncnc3c2C)cc1")
0
>>> category("CCOc1ccccc1-c1sc2c(NN=Cc3ccc(C(=O)O)cc3)ncnc2c1O")
1
>>> category("CCOc1ccccc1-c1sc2c(NN=Cc3ccc(C(=O)O)cc3)ncnc2c1C#N")
1
>>> category("COc1ccc(C=NNc2ncnc3c(C)c(-c4ccc(F)cc4)sc23)cc1O")
0
>>> category("COc1ccc(C=NNc2ncnc3c(C)c(-c4ccccc4O)sc23)cc1O")
0
